- TEST_METHOD_NOTES: Oral bioavailability in BALB/c mouse at 1 mg/kg
- Assay type: ADME, organism-based
- CONDITIONS: in vivo
ASSAY_METRIC: bioavailability (%)
Give bare numbers, in %.

The compound listed as COc1cc2c(c(OC)c1OC)-c1ccc(SC)c(=O)cc1[C@@H](NC(=O)C1CC1C)CC2 (stereo partly specified) has a reported bioavailability of 67.3

====

- TEST_METHOD_NOTES: Solubility of the compound in presence of 20% serum
- Type: physicochemical
ASSAY_METRIC: solubility (µM)
Numbers only, in µM.

In the examples that follow, each entry is paired with its recorded solubility.
>  <COMPOUND>
COc1cc2c(c(OC)c1OC)-c1ccc(OC)c(=O)cc1[C@@H](NC(C)=O)CC2 [COLCHICINE]

>  <solubility [µM]>
300

$$$$
>  <COMPOUND>
COc1cc2c(c(OC)c1OC)-c1ccc(SC)c(=O)cc1[C@@H](NC(=O)c1cccc(CO[N+](=O)[O-])c1)CC2

>  <solubility [µM]>
10

$$$$

Let us examine a further case.
The compound listed as COc1cc2c(c(OC)c1OC)-c1ccc(SC)c(=O)cc1[C@@H](NC(=O)CCCO[N+](=O)[O-])CC2 has a reported solubility of 100

All figures here come from ChEMBL document CHEMBL2163345.
